- assaySummary: in vivo
- Set-up: species or system mouse
- conditionContext: mouse, in vivo, iv, 250 mg/kg, 34 min; mice, 250 mg/kg iv; read-out: Serum levels
measurementKind: concentration at 34 min (µg/mL)

                                   compound  unitsymbol  measuredvalue
0  [N-]=[N+]=N[C@H]1C[C@H](n2ccc(=O)[nH]c2=O)O[C@@H]1CO [CS-87, 3'-azido-2',3'-dideoxyuridine]       µg/mL           55.5

###

- assaySummary: in vivo
- Parameters: species or system mouse
- conditionContext: mouse, in vivo, iv, 250 mg/kg, 72 min; mice, 250 mg/kg iv; read-out: Brain levels
- Experimental: In rhesus monkeys, the pharmocokinetic parameters after an oral dose of […] of CS-87 are as follows: ^a Mice were administered the drug at a dose of 250 mg/kg iv.
measurementKind: concentration at 1.2 h (ng/mL)

In [3]: df
Out[3]:
                               samplesmiles  measuredvalue
0  [N-]=[N+]=N[C@H]1C[C@H](n2ccc(=O)[nH]c2=O)O[C@@H]1CO           7330
